meta.source: the supplement of paper PMC3334620

- TESTED_ON: Yap3 (UniProt P38749)
- Sequence: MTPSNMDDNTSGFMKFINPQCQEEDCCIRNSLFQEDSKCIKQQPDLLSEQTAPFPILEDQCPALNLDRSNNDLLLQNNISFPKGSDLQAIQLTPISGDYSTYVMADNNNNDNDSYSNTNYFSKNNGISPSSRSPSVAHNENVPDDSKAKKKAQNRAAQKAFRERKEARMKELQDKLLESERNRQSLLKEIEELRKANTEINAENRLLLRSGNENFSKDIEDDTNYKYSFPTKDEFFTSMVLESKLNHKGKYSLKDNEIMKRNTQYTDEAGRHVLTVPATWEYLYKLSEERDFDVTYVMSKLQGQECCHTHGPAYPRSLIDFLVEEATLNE
- PROTOCOL: PBM E-score (8-mer binding enrichment) (E-score (-0.5 to 0.5)); higher = stronger / more preferred TF binding
- CONDITION_CONTEXT: protein concentration: 100 nM; construct: GST-full length
In all, about 33,000 sequences were measured (“E-score (-0.5 to 0.5)”: median about -0.0034, highest 2% from about 0.25 on). This excerpt belongs to a sample that is enriched for the highest values.
Lab note: compare PBM E-score against 0.1. Equal or greater, write rule met. Smaller, write rule not met.

See these solved cases before continuing.
INSERT INTO results (seq, assigned_label) VALUES
  ('CAAATTAA', 'rule met'),
  ('AACCTTCG', 'rule not met'),
  ('GATACTAC', 'rule not met'),
  ('CATCTACC', 'rule met'),
  ('CAAATTAC', 'rule met');

API: the following record is the query input.
[Q] Hello, I need to know if AATAGCGA has measured PBM E-score not below 0.1. Thanks!
[A] rule met

---

- TESTED_ON: Yap3 (UniProt P38749)
- Sequence: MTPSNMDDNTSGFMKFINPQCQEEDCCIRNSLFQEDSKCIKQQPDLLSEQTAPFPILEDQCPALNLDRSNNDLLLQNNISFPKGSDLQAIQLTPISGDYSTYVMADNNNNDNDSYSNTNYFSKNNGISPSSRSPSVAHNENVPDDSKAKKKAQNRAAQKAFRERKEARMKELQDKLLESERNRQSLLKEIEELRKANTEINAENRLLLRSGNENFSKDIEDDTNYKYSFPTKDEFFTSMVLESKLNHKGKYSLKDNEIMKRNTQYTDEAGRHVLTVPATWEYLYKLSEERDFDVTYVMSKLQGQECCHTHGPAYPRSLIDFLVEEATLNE
- PROTOCOL: PBM E-score (8-mer binding enrichment) (E-score (-0.5 to 0.5)); higher = stronger / more preferred TF binding
- CONDITION_CONTEXT: protein concentration: 100 nM; construct: GST-full length
Over roughly 33,000 sequences, “E-score (-0.5 to 0.5)” has its median near -0.0034; the highest 2% begin near 0.25. The list comes from a sample in which the highest values are over-represented; it also holds close analogues and randomly drawn sequences.
Lab note: compare PBM E-score against 0.2. Equal or greater, write t. Smaller, write f.

See these solved cases before continuing.
INSERT INTO measurements (seq, assigned_label) VALUES
  ('AAACGTAT', 'f'),
  ('AAATTTAC', 't'),
  ('GCCGATCA', 'f'),
  ('CTTCGTAA', 'f'),
  ('ATACGTAT', 't');

[Q] Hello, I need to know if AACTAGGT has measured PBM E-score not below 0.2. Thanks!
[A] f

[Q] Hello, I need to know if ACACGTAT has measured PBM E-score not below 0.2. Thanks!
[A] f

[Q] Hello, I need to know if GTACGTAC has measured PBM E-score not below 0.2. Thanks!
[A] f
